TEST_PROTOCOL: Tumour tissue concentrations by HPLC with fluorescence detection
Type: in vivo, human
CONDITIONS_USED: human, tumour tissue / plasma, oral, 75 mg three times a day, tumour tissue to plasma, 10 subjects; read-out: Tissue/plasma ratios, maximum
# Kp at 28 day values compiled below
Could you keep your reply to the number by itself?

Below: 2 compounds and their reported Kp at 28 day.
compound="CO[C@@H]1[C@H](N(C)C(=O)c2ccccc2)C[C@H]2O[C@]1(C)n1c3ccccc3c3c4c(c5c6ccccc6n2c5c31)C(=O)NC4O (single isomer, unassigned) [CGP52421 (e2)]" number=0.153
compound=CN(C(=O)c1ccccc1)[C@@H]1C[C@H]2O[C@@](C)([C@@H]1O)n1c3ccccc3c3c4c(c5c6ccccc6n2c5c31)C(=O)NC4 number=0.42

We now examine a further compound.
// returns reported Kp at 28 day for input CO[C@@H]1[C@H](N(C)C(=O)c2ccccc2)C[C@H]2O[C@]1(C)n1c3ccccc3c3c4c(c5c6ccccc6n2c5c31)C(=O)NC4 1.86

Data provenance: paper PMC2360547
